- TEST_SYSTEM: Aurora kinase B (Homo sapiens);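 note: reported values are averaged percent inhibition of Aurora B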
- MEASUREMENT_CONTEXT: at 0.1 µM
What inhibition was measured for each of the following?
Write the answer as a number in %, unit excluded.

Sample Fc1ccc(-c2nn3ccccc3c2-c2ccncc2)cc1 ; inhibition observed: -1.03

Sample COc1ccc(-c2cc(-c3c[nH]nc3-c3ccccn3)ccn2)cc1 ; inhibition observed: 4.41

Sample COc1ccc2[nH]c3c4[nH]c5ccc(OC)cc5c4c4c(c3c2c1)C(=O)NC4=O ; inhibition observed: 20.7

Sample NS(=O)(=O)c1ccc(N/N=C2\C(=O)Nc3ccc4ncccc4c32)cc1 ; inhibition observed: 20

Sample CN(C)CCOc1ccc(-c2nc(-c3ccncc3)c(-c3ccc4c(c3)CC/C4=N\O)[nH]2)cc1 ; inhibition observed: 1.63

Sample CNC(=O)c1cc(-c2ccc(F)cc2)cc(-c2ccc(S(=O)(=O)N3CCCC3)cc2)c1N ; inhibition observed: 2.91

Sample CC(=O)Nc1cccc(C#Cc2cncnc2Nc2ccc(OCc3cccc(F)c3)c(Cl)c2)c1 ; inhibition observed: 1.68

Sample Cc1cccc(Nc2ncc(-c3ccccc3)o2)c1 ; inhibition observed: 3.4

Sample c1ccc(-c2nc3n(c2-c2ccc4c(c2)OCO4)CCC3)nc1 ; inhibition observed: 1.52

Sample COc1ccc(CNC(=O)c2ccc(-c3cc(-c4nnc(C)o4)ccc3C)cc2)cc1 ; inhibition observed: 5.79

Sample CC(=O)NCc1cccc(C#Cc2cncnc2Nc2ccc(OCc3cccc(F)c3)c(Cl)c2)c1 ; inhibition observed: 1.99

Sample Cc1cccc2c1NC(=O)/C2=N\Nc1ccc(S(N)(=O)=O)cc1 ; inhibition observed: 3.31

Sample COc1ccc(-c2nn3ncccc3c2-c2ccnc(Nc3ccc4c(c3)OCCO4)n2)cc1 ; inhibition observed: 3.61

Sample Fc1ccc(-c2nn3ncccc3c2-c2ccnc(Nc3ccc4c(c3)OCCO4)n2)cc1 ; inhibition observed: 4.26

Sample NC(=O)c1sc(-n2cnc3ccc(C(F)(F)F)cc32)cc1OCc1ccccc1Br ; inhibition observed: 2.77

----------
- TEST_SYSTEM: Ephrin type-B receptor 2 (Homo sapiens) (UniProt P29323)
- Sequence (whole entry): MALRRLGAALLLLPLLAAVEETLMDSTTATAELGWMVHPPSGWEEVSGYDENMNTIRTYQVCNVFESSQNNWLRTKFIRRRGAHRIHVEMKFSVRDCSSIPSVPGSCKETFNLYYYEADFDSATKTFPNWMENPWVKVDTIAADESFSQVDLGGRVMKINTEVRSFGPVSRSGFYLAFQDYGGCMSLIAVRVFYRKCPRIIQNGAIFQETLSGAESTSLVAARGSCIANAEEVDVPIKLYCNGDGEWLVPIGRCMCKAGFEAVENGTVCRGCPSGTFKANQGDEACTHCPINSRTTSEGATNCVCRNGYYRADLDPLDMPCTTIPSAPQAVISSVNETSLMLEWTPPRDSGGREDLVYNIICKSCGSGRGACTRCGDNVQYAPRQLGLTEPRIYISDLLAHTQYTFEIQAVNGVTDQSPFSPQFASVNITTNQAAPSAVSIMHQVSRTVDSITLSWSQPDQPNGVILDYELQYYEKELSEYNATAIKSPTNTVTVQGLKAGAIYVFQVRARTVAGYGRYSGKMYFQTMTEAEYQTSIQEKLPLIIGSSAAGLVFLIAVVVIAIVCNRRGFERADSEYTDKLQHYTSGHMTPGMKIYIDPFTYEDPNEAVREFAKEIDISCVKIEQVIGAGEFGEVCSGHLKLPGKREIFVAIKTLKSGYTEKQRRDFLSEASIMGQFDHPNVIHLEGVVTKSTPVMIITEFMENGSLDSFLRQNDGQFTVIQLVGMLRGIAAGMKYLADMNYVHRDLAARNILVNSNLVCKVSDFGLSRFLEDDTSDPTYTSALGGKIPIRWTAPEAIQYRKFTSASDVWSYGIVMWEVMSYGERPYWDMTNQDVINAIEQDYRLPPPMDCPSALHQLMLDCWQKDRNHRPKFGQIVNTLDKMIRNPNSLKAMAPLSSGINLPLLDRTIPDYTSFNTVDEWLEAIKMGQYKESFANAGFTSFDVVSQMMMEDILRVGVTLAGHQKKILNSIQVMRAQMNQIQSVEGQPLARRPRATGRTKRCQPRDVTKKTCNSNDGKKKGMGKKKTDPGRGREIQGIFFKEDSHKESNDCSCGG
- MEASUREMENT_CONTEXT: at 1 µM
- Description: GSK_PKIS: EPHB2 mean inhibition at 1 uM [Nanosyn]
ATTRIBUTE_MEASURED: inhibition (%)
Write the answer as a number in %, unit excluded.

Summary line: COc1cccc(-c2c[nH]c3c(N/N=C/c4ccncc4)ncnc23)c1 , Ephrin type-B receptor 2 (Homo sapiens) (UniProt P29323), reported inhibition = 25.9

Summary line: Fc1ccc(-c2cc(-c3c[nH]nc3-c3ccccn3)ccn2)cc1 , Ephrin type-B receptor 2 (Homo sapiens) (UniProt P29323), reported inhibition = 10.6

Summary line: O=C(Nc1n[nH]c2cc(-c3ccc(F)cc3)ccc12)C1CC1 , Ephrin type-B receptor 2 (Homo sapiens) (UniProt P29323), reported inhibition = 7.07

Summary line: CCn1c(-c2nonc2N)nc2ccccc21 , Ephrin type-B receptor 2 (Homo sapiens) (UniProt P29323), reported inhibition = 10.1

Summary line: FC(F)(F)c1cccc(-c2nn3ncccc3c2-c2ccnc(Nc3ccc4c(c3)OCCO4)n2)c1 , Ephrin type-B receptor 2 (Homo sapiens) (UniProt P29323), reported inhibition = 18.1

Summary line: CN1CCC(n2cnc(-c3ccc(F)cc3)c2-c2ccnc(N)n2)CC1 , Ephrin type-B receptor 2 (Homo sapiens) (UniProt P29323), reported inhibition = 11.7

Summary line: [O-][S+]1CCN(Cc2ccc(-c3ccc4ncnc(Nc5ccc(OCc6cccc(F)c6)c(Cl)c5)c4c3)o2)CC1 , Ephrin type-B receptor 2 (Homo sapiens) (UniProt P29323), reported inhibition = 7.63

Summary line: CCn1c(-c2nonc2N)nc2cnc(Oc3cccc(NC(=O)c4ccc(N(C)C)cc4)c3)cc21 , Ephrin type-B receptor 2 (Homo sapiens) (UniProt P29323), reported inhibition = 7.72

Summary line: CNC(=O)c1cc(-c2ccc(F)cc2)cc(-c2ccc(S(=O)(=O)N3CCCC3)cc2)c1N , Ephrin type-B receptor 2 (Homo sapiens) (UniProt P29323), reported inhibition = 5.41

Summary line: Nc1ncc(-c2cccc(S(N)(=O)=O)c2)c2scc(-c3ccc(F)c(Cl)c3)c12 , Ephrin type-B receptor 2 (Homo sapiens) (UniProt P29323), reported inhibition = 88.7

Reference for the values: ChEMBL document CHEMBL1961873
